System: IL-5
Experiment: IL-5 production by latex specific oligoclonal T cells (ELISA on culture supernatants)
Type: cell-based, human
Conditions: P1 T cell line; peptide 10 μg/ml; supernatant at 48 hours
Quantity kind: IL-5
Be sure to follow the number with its unit.

Construct sequence: TKETETEAPAAPAEGEKPAE [Hev b 5 (109-128)]
Quantity kind: IL-5
Result: 0 pg/mL
--
Construct sequence: ASEQETADATPEKEEPTAAP [Hev b 5 (37-56)]
Quantity kind: IL-5
Result: 0 pg/mL
--
Construct sequence: TPEKEEPTAAPAEPEAPAPE [Hev b 5 (46-65)]
Quantity kind: IL-5
Result: 344 pg/mL

From here, focus on the item given below.
(Q) Form field: reported IL-5 of APAEPEAPAPETEKAEEVEK [Hev b 5 (55-74)]
(A) 0 pg/mL

All figures here come from patent US20070059756A1.
